target: P-gp (Homo sapiens); settings: MDCK, 10 μM
Sequence (P08183 whole entry): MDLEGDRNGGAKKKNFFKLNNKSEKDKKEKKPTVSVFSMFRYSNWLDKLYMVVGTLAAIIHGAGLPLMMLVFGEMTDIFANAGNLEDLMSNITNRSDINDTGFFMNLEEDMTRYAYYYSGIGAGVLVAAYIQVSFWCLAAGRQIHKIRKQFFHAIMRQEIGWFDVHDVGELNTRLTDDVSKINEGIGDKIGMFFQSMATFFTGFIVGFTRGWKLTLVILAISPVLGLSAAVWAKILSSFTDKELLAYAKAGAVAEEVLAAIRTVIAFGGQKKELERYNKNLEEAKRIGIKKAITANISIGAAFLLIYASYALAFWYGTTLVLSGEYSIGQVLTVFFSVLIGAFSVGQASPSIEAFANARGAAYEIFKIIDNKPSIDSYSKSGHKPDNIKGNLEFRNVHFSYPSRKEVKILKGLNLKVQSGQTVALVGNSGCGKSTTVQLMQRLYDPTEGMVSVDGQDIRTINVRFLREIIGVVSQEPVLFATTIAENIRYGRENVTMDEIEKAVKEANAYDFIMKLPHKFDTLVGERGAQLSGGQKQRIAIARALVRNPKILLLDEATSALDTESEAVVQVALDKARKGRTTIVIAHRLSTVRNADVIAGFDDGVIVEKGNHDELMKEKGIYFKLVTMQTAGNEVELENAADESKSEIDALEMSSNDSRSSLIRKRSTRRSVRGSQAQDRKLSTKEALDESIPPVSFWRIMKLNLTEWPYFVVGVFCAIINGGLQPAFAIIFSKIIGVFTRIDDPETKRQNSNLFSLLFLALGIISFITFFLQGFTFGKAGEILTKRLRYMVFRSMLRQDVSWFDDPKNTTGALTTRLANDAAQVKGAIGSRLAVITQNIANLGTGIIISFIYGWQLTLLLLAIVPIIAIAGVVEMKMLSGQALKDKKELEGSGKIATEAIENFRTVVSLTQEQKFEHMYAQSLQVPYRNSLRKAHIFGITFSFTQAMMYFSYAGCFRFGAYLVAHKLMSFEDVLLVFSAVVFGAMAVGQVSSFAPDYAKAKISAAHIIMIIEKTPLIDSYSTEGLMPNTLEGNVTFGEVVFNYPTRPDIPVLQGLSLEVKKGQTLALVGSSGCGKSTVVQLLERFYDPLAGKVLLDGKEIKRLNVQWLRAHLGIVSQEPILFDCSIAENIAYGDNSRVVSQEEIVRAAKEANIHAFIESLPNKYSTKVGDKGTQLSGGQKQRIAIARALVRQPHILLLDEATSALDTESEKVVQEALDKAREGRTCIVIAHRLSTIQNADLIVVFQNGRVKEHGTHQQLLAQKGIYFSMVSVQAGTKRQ
Square brackets hold non-standard residues; d marks the D form. Peptide text beside a SMILES is read from it. Gly(N-CH2-oxan-4-yl) = O=C(O)CNCC1CCOCC1; NCyclohexylmethylGly = O=C(O)CNCC1CCCCC1; NMeL = CN[C@@H](CC(C)C)C(=O)O; NMeA = CN[C@@H](C)C(=O)O; NEtG = CCNCC(=O)O
quantity_name: P-gp R-value

Query block: Please report the recorded P-gp R-value for CCN1CC(=O)N[C@@H](CC(C)C)C(=O)N2CCC[C@@H]2C(=O)N(C)[C@@H](CC(C)C)C(=O)N[C@@H](C)C(=O)N(CC2CCOCC2)CC(=O)N[C@@H](Cc2ccccc2)C(=O)N2CCC[C@@H]2C(=O)N(C)[C@@H](CC(C)C)C(=O)N[C@@H](C)C1=O [Compound B09] (cyclo(A[NEtG]L[dP][NMeL]A[Gly(N-CH2-oxan-4-yl)]F[dP][NMeL])) .
Result block: 10

Query block: Please report the recorded P-gp R-value for CCN1CC(=O)N[C@@H](CC(C)C)C(=O)N(C)[C@@H](C)C(=O)N[C@@H](CC(C)C)C(=O)N2CCC[C@@H]2C(=O)N(CC2CCOCC2)CC(=O)N[C@@H](CC(C)C)C(=O)N(C)[C@@H](C)C(=O)N[C@@H](Cc2ccccc2)C(=O)N2CCC[C@@H]2C1=O [Compound A09] (cyclo([NEtG]L[NMeA]L[dP][Gly(N-CH2-oxan-4-yl)]L[NMeA]F[dP])) .
Result block: 46.9

Query block: Please report the recorded P-gp R-value for CCN1CC(=O)N[C@@H](CC(C)C)C(=O)N2CCC[C@@H]2C(=O)N(C)[C@@H](CC(C)C)C(=O)N[C@@H](C)C(=O)N(CC2CCCCC2)CC(=O)N[C@@H](Cc2ccccc2)C(=O)N2CCC[C@@H]2C(=O)N(C)[C@@H](CC(C)C)C(=O)N[C@@H](C)C1=O [Compound B08] (cyclo([NEtG]L[dP][NMeL]A[NCyclohexylmethylGly]F[dP][NMeL]A)) .
Result block: 19.2

Query block: Please report the recorded P-gp R-value for CCN1CC(=O)N[C@@H](CC(C)C)C(=O)N(C)[C@@H](C)C(=O)N[C@@H](CC(C)C)C(=O)N2CCC[C@@H]2C(=O)N(CC2CCOCC2)CC(=O)N[C@@H](CC(C)C)C(=O)N(C)[C@@H](C)C(=O)N[C@@H](C)C(=O)N2CCC[C@@H]2C1=O [Compound A03] (cyclo([NEtG]L[NMeA]L[dP][Gly(N-CH2-oxan-4-yl)]L[NMeA]A[dP])) .
Result block: 6.4
